Examples of binders with documented pKd follow.
Target: human alpha-thrombin (human, UniProt P00734;P00734 328-363;364-622)
Assay: BLI
pKd: −log10 of the molar value.

| Binder | pKd |
| --- | --- |
| TCACTGTGGTTGGTGTGGTTGGTTTTTTTTTTTTACAGTG (structured_DNA) [ISD-Bt] | 6.61 |
| GGTTGGTGTGGTTGG (structured_DNA) [TBA-Bt] | 6.94 |
